TGT: human serotonin transporters (Homo sapiens, UniProt P31645)
Construct: expressed in transfected cells
Sequence (P31645 whole entry): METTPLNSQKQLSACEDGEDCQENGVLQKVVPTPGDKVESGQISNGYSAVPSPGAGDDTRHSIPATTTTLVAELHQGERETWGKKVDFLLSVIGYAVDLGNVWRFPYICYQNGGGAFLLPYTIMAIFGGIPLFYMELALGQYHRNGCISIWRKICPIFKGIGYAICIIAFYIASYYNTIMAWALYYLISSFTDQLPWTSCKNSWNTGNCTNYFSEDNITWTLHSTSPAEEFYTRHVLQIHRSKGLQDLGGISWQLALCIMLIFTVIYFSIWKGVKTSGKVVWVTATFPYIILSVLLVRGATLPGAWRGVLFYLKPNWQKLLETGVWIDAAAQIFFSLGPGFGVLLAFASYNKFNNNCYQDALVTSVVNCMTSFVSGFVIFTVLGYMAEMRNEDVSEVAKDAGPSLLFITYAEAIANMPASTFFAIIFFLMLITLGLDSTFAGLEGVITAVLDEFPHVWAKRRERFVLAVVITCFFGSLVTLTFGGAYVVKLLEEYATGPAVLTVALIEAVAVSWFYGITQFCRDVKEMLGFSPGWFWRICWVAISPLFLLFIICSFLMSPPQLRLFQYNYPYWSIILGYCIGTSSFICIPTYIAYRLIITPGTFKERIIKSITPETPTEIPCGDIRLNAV
PROTOCOL_DESCRIPTION: Serotonin transporter binding assay ([3H]-citalopram competition, HEK-hSERT cell membranes)
RUN_CONDITIONS: Table 1; HEK-hSERT membranes, [3H]-citalopram displacement; read-out: SERT IC50
pIC50: −log10 of the molar value.
MEASURED_ATTRIBUTE: pIC50

> print(dat)
                           molecular.string    assay.value
1  Oc1ccc(-c2cc(COCC3(c4ccccc4)CCNCC3)cc(C(F)(F)F)c2)cc1  7.00 to 11.00
2  COc1cc(-c2cc(COCC3(c4ccccc4)CCNCC3)cc(C(F)(F)F)c2)c(F)cn1  7.00 to 11.00
3  FC(F)(F)c1cc(COCC2(c3ccccc3)CCNCC2)cc(-c2ccc(-c3ccccc3)cc2)c1  7.00 to 11.00
4  COc1ccc(-c2nnn(C)n2)cc1COCC1(c2ccccc2)CCNCC1   6.52 to 7.00
5  COc1cc(-c2cc(COCC3(c4ccccc4)CCNCC3)cc(C(F)(F)F)c2)c(Cl)cn1  7.00 to 11.00
6  FC(F)(F)c1cc(COCC2(c3ccccc3)CCNCC2)cc(-c2cccnc2Cl)c1  7.00 to 11.00
7  FC(F)(F)c1cc(COCC2(c3ccccc3)CCNCC2)cc(-c2ccco2)c1  7.00 to 11.00

====

A collection of compounds and their measured pIC50
TGT: neurokinin-1 (NK-1) receptor (Homo sapiens)
Construct: a human glioblastoma-astrocytoma cell line that endogenously expresses the neurokinin-1 (NK-1) receptor; endogenous in cells; host or cells: U373 human glioblastoma-astrocytoma cells (membranes)
PROTOCOL_DESCRIPTION: NK-1 Binding assay ([125I] Substance P competition, U373 cell membranes)
RUN_CONDITIONS: Table 1; U373 membranes, [125I] Substance P displacement; read-out: NK-1 IC50
pIC50: −log10 of the molar value.
MEASURED_ATTRIBUTE: pIC50

> print(dat)
                           molecular.string  measured.attribute    assay.value
1  COc1ccccc1-c1cc(COCC2(c3ccccc3)CCNCC2)cc(C(F)(F)F)c1               pIC50  7.00 to 11.00
2  CCOc1cccc(-c2cc(COCC3(c4ccccc4)CCNCC3)cc(C(F)(F)F)c2)c1               pIC50   6.52 to 7.00
3  COc1ncc(-c2cc(COCC3(c4ccccc4)CCNCC3)cc(C(F)(F)F)c2)c(OC)n1               pIC50   6.52 to 7.00
4  FC(F)(F)c1cc(COCC2(c3ccccc3)CCNCC2)cc(-c2nnn[nH]2)c1               pIC50   6.52 to 7.00
5  COc1ccc(-c2cc(COCC3(c4ccccc4)CCNCC3)cc(C(F)(F)F)c2)cc1F               pIC50  7.00 to 11.00
6  FC(F)(F)c1cc(COCC2(c3ccccc3)CCNCC2)cc(-c2ccc3cnccc3c2)c1               pIC50   6.52 to 7.00
7  Fc1ccc(-c2cc(COCC3(c4ccccc4)CCNCC3)cc(C(F)(F)F)c2)cc1F               pIC50  7.00 to 11.00
8  FC(F)(F)c1cc(COCC2(c3ccccc3)CCNCC2)cc(-c2ccc(-c3ccccc3)cc2)c1               pIC50   6.52 to 7.00
9  FC(F)(F)c1cc(COCC2(c3ccccc3)CCNCC2)cc(-c2ccc(Cl)cc2)c1               pIC50  7.00 to 11.00

====

A collection of compounds and their measured IC50
TGT: neurokinin-1 (NK-1) receptor (Homo sapiens, UniProt P25103)
Construct: a human glioblastoma-astrocytoma cell line that endogenously expresses the neurokinin-1 (NK-1) receptor; endogenous in cells; host or cells: U373 human glioblastoma-astrocytoma cells (membranes)
Sequence (P25103 whole entry): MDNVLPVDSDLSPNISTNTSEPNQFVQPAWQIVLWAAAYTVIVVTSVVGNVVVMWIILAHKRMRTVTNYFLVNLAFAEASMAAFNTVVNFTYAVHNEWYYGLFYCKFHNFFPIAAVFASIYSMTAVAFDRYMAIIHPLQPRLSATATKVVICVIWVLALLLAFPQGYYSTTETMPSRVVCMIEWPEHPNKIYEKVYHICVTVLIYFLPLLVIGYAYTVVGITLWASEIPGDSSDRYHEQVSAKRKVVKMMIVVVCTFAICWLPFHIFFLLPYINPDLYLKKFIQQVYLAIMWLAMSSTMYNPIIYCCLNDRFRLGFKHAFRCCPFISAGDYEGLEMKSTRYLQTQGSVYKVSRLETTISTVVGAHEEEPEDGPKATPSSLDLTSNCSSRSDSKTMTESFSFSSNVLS
PROTOCOL_DESCRIPTION: NK-1 Binding assay ([125I] Substance P competition, U373 cell membranes)
RUN_CONDITIONS: Table 2; U373 membranes, [125I] Substance P displacement; read-out: NK-1 IC50
MEASURED_ATTRIBUTE: IC50

> print(dat)
                            molecular.string  measured.attribute     assay.value
 1  N#Cc1ccc(-c2cc(COCC3(c4cccc(Cl)c4)CCNCC3)cc(C(F)(F)F)c2)cc1                IC50  0.01 to 100 nM
 2  CN1CCC(COCc2cc(-c3ccc(Cl)cc3)cc(C(F)(F)F)c2)(c2ccccc2)CC1                IC50  0.01 to 100 nM
 3  Cc1cccc(-c2cc(COCC3(c4ccccc4)CCNCC3)cc(C(F)(F)F)c2)c1C                IC50   100 to 300 nM
 4  Cc1ccc(C)c(-c2cc(COCC3(c4ccccc4)CCNCC3)cc(C(F)(F)F)c2)c1                IC50        > 300 nM
 5  CN1CCC(COCc2cc(F)cc(-c3ccc(F)cc3)c2)(c2ccccc2)CC1                IC50   100 to 300 nM
 6  FC(F)(F)Oc1cccc(-c2cc(COCC3(c4ccccc4)CCNCC3)cc(C(F)(F)F)c2)c1                IC50        > 300 nM
 7  COc1ccc(-c2cc(COCC3(c4ccccc4)CCN(C)CC3)cc(C(F)(F)F)c2)cc1F                IC50  0.01 to 100 nM
 8  COc1ccc(C)cc1-c1cc(COCC2(c3ccccc3)CCNCC2)cc(C(F)(F)F)c1                IC50        > 300 nM
 9  N#Cc1ccc(-c2cc(C#N)cc(COCC3(c4ccccc4)CCNCC3)c2)cc1                IC50  0.01 to 100 nM
10  CN1CCC(COCc2cc(-c3ccc(C#N)cc3)cc(C(F)(F)F)c2)(c2ccc(Br)cc2)CC1                IC50  0.01 to 100 nM
11  O=C(Nc1ccc(-c2cc(COCC3(c4ccccc4)CCNCC3)cc(C(F)(F)F)c2)cc1)OCc1ccccc1                IC50  0.01 to 100 nM
12  CN1CCC(COCc2cc(-c3cccc(F)c3)cc(C(F)(F)F)c2)(c2ccccc2)CC1                IC50  0.01 to 100 nM
13  Oc1cc(COCC2(c3ccccc3)CCNCC2)cc(-c2ccc(F)cc2)c1                IC50        > 300 nM
14  COc1ccc(-c2cc(COCC3(c4ccccc4)CCNCC3)cc(C(F)(F)F)c2)cc1C                IC50  0.01 to 100 nM
15  CN1CCC(COCc2cc(-c3ccc(C#N)cc3)cc(C(F)(F)F)c2)(c2cccc(C(F)(F)F)c2)CC1                IC50  0.01 to 100 nM
16  Cc1cc(-c2cc(COCC3(c4ccccc4)CCN(C)CC3)cc(C(F)(F)F)c2)ccc1C#N                IC50  0.01 to 100 nM
17  COc1c(C)cc(-c2ccc(C#N)cc2)cc1COCC1(c2ccccc2)CCNCC1                IC50  0.01 to 100 nM
18  COc1ccc(-c2cc(COCC3(c4ccccc4)CCNCC3)cc(C(F)(F)F)c2)nn1                IC50  0.01 to 100 nM
19  CCCCOc1ccc(-c2cc(COCC3(c4ccccc4)CCNCC3)cc(C(F)(F)F)c2)cc1                IC50  0.01 to 100 nM
20  FC(F)(F)c1cc(COCC2(c3ccccc3)CCNCC2)cc(-c2ccc(C3CCNCC3)nc2)c1                IC50        > 300 nM
21  N#Cc1c(F)c(F)c(-c2cc(COCC3(c4ccccc4)CCNCC3)cc(C(F)(F)F)c2)c(F)c1F                IC50  0.01 to 100 nM
22  CN1CCC(COCc2cc(-c3ccc(C#N)c(Cl)c3)cc(C(F)(F)F)c2)(c2ccccc2)CC1                IC50  0.01 to 100 nM
23  CN1CCC(COCc2cc(-c3ccc(C#N)cc3)cc(C(F)(F)F)c2)(c2cccnc2)CC1                IC50  0.01 to 100 nM
24  COc1cc(F)c(-c2cc(COCC3(c4ccccc4)CCNCC3)cc(C(F)(F)F)c2)cc1F                IC50  0.01 to 100 nM
25  Cn1cc(-c2cc(COCC3(c4ccccc4)CCNCC3)cc(C(F)(F)F)c2)cn1                IC50  0.01 to 100 nM
